Field: Kd. Provide a value for each of the binders that follow.
molecular target: feline FcRn complex (FcRn-α subunit and β-microglobulin), biotin labeled (feline); experiment: SPR, pH 6
Respond numerically; units are nM and should not be typed.

# lookup: Kd of feline IgG1a S252N (antibody, part only; not given: variable domains, not shown: another chain or arm of the molecule) constant: ASTTAPSVFPLAPSCGTTSGATVALACLVLGYFPEPVTVSWNSGALTSGVHTFPAVLQASGLYSLSSMVTVPSSRWLSDTFTCNVAHPPSNTKVDKTVRKTDHPPGPKPCDCPKCPPPEMLGGPSIFIFPPKPKDTLNISRTPEVTCLVVDLGPDDSDVQITWFVDNTQVYTAKTSPREEQFNSTYRVVSVLPILHQDWLKGKEFKCKVNSKSLPSPIERTISKAKGQPHEPQVYVLPPAQEELSRNKVSVTCLIKSFHPPDIAVEWEITGQPEPENNYRTTPPQLDSDGTYFVYSKLSVDRSHWQRGNTYTCSVSHEALHSHHTQKSLTQSPGK
400

Can you check feline IgG1a D312A (antibody, part only; not given: Variable domains, not shown: another chain or arm of the molecule; small tags and cut ends) constant: ASTTAPSVFPLAPSCGTTSGATVALACLVLGYFPEPVTVSWNSGALTSGVHTFPAVLQASGLYSLSSMVTVPSSRWLSDTFTCNVAHPPSNTKVDKTVRKTDHPPGPKPCDCPKCPPPEMLGGPSIFIFPPKPKDTLSISRTPEVTCLVVDLGPDDSDVQITWFVDNTQVYTAKTSPREEQFNSTYRVVSVLPILHQAWLKGKEFKCKVNSKSLPSPIERTISKAKGQPHEPQVYVLPPAQEELSRNKVSVTCLIKSFHPPDIAVEWEITGQPEPENNYRTTPPQLDSDGTYFVYSKLSVDRSHWQRGNTYTCSVSHEALHSHHTQKSLTQSPGK next?
6.95
